# system: PAF receptor (Oryctolagus cuniculus, UniProt G1TEI7)
# Sequence (G1TEI7 1-342): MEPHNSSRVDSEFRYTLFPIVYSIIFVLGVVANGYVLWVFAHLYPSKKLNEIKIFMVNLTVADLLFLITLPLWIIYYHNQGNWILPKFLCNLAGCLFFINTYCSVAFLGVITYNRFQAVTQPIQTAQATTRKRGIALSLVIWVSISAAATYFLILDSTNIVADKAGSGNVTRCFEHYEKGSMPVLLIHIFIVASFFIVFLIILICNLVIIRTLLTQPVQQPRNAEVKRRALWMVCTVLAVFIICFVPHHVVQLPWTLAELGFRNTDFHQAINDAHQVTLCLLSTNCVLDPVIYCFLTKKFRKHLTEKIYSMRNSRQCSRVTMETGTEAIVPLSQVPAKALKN
# protocol: [3H]‐PAF receptor binding to rabbit platelet membranes
# condition: read-out: [3H]‐PAF receptor binding inhibition constant (Ki, nM; Mean ± SEM)
Ki less than 40 nM is rule met; Ki greater than or equal to 40 nM is rule not met.

CCCCCCCCCCCCCCCCCCNC(=O)OC[C@@H](COCCCC[n+]1ccsc1)OC(=O)OC [RO‐19‐3704] :: rule not met
CC(C)(CCN1CCN(C(=O)C2CSC(c3cccnc3)N2)CC1)c1ccccc1 (stereo not shown) [YM‐264] :: rule met
CN(C)C(=O)n1cc(C(=O)c2ccn3c2CS[C@@H]3c2cccnc2)c2ccc(-c3ccc(F)cc3)cc21 [A‐85783] :: rule met
Cc1nnc2n1-c1sc3c(c1C(c1ccccc1Cl)=N[C@H]2C)CCN(C(=O)C1CC1)C3 [E‐6123] :: rule met
COc1ccc(SCC(=S)N2CCc3c(sc4c3C(c3ccccc3Cl)=NCc3nnc(C)n3-4)C2)cc1OC [BN‐50739] :: rule met

Field: below-cutoff. Rule: recorded Ki strictly less than 40 nM. Subject: C[C@@H]1S[C@H](c2cccnc2)N(C)C1=O [SM‐10661]
rule not met

Entry to check: CCCCCCCCCCCCCCCCCCNC(=O)OCC(COP(=O)([O-])OCC[n+]1ccsc1)OC (stereo not shown) [CV‐3988]
rule not met

###

# system: PAF receptor (Homo sapiens, UniProt P25105)
# Construct: from tissue; host or cells: human platelet membranes
# Sequence (P25105 whole entry): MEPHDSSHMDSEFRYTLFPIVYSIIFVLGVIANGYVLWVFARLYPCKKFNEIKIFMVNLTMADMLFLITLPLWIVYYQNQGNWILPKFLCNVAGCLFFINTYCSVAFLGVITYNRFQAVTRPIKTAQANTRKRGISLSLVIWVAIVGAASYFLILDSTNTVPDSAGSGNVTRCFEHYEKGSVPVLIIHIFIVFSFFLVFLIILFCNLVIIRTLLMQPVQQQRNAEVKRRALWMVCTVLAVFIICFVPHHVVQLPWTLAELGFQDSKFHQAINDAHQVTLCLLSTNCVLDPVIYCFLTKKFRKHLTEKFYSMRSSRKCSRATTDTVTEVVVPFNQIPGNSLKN
# protocol: [3H]‐PAF binding to human platelet membranes
measured.attribute: pKi
When answering, recall that pKi equals minus log10 of the concentration in mol/L, and write that number alone.

Bench note: what pKi did C#Cc1cccc2c1c(C(=O)c1ccc(Cn3c(C)nc4cnccc43)c(F)c1)cn2C(=O)N(C)C [A‐137491] show?
8.41

###

Here, each record is paired with measured Ki data.
# system: PAF receptor (Oryctolagus cuniculus, UniProt G1TEI7)
# protocol: [3H]‐PAF receptor binding to rabbit platelet membranes
# condition: read-out: [3H]‐PAF receptor binding inhibition constant (Ki, nM; Mean ± SEM)
# From the text: FIGURE 5 Pharmacological profile of PAR receptor binding to platelet membranes. Figure 5A depicts the concentration‐dependent inhibition by unlabeled PAF receptor antagonists of different affinities for [^3H]‐PAF binding to rabbit platelet membranes in vitro. Figure 5B illustrates the correlation between the pharmacological profile of PAF receptor antagonists competing for [^3H]‐PAF binding to rabbit and human platelet membranes.

Some solved entries appear below for comparison.
CCOC[C@H](CC(C)C)N(C)S(=O)(=O)c1ccc(Cn2c(C)nc3cnccc32)cc1 :: 1.7 nM
COc1ccc(NC(=S)N2CCc3c(sc4c3C(c3ccccc3Cl)=NCc3nnc(C)n3-4)C2)cc1 [BN‐50730 (Rocipafant) LAU‐8080, Rocipafant] :: 44.8 nM

Consider the record given below.
Bench note: what Ki did CCC[n+]1cc(Br)cc(C(=O)N(CCC(=O)NCCOC(=O)N2CCc3ccccc3C2)c2ccccc2)c1.O=[N+]([O-])[O-] show?
5.5 nM
